# Read-out: Plasminogen activator inhibitor-1 (PAI1), SERPINE1 (gene 5054)
# assay.method.text: BSK_BE3C_PAI1: BioMAP Diversity Plus: BE3C Assay for Plasminogen activator inhibitor-1 (PAI1) Biomarker Activity (AID 2283037)
# protocol.conditions: primary human bronchial epithelial cells; actives raise or lower the signal
Calls of active or inactive are those of the source. The calls were made as follows: active = hit-call score of the fitted dose curve at least 0.9, where 1 is the maximum; inactive = score below 0.9.
Respond only with the outcome that fits, drawn from Y = active, N = inactive

A selection of reference data follows.
INSERT INTO results (chemical_structure, class) VALUES
  ('Oc1cc(Cl)ccc1Oc1ccc(Cl)cc1Cl', 'Y'),
  ('CCCN(CCOc1c(Cl)cc(Cl)cc1Cl)C(=O)n1ccnc1', 'Y');

Note: attention shifts to another entry.
In: // param item: CCCN(CCC)c1c([N+](=O)[O-])cc(C(F)(F)F)cc1[N+](=O)[O-] ; yields the recorded call
Out: N

Data credit: PubChem BioAssay (EPA / NIEHS)
